Exercise: state measured IC50 for each of the compounds provided.
# TEST SYSTEM: human Werner helicase (WRN-BV08, Uniprot Q14191, amino acids 517-1235 with L1074F point mutation) (Homo sapiens, UniProt Q14191, L1074F)
# Construct: Uniprot Q14191, amino acids 517-1235 with L1074F point mutation; TEV-cleavable 8×His (C, cleaved yes); made in house; host or cells: Sf9 insect cells (baculovirus)
# Sequence (Q14191 with tags, fused parts or gaps L1074F limits assumed): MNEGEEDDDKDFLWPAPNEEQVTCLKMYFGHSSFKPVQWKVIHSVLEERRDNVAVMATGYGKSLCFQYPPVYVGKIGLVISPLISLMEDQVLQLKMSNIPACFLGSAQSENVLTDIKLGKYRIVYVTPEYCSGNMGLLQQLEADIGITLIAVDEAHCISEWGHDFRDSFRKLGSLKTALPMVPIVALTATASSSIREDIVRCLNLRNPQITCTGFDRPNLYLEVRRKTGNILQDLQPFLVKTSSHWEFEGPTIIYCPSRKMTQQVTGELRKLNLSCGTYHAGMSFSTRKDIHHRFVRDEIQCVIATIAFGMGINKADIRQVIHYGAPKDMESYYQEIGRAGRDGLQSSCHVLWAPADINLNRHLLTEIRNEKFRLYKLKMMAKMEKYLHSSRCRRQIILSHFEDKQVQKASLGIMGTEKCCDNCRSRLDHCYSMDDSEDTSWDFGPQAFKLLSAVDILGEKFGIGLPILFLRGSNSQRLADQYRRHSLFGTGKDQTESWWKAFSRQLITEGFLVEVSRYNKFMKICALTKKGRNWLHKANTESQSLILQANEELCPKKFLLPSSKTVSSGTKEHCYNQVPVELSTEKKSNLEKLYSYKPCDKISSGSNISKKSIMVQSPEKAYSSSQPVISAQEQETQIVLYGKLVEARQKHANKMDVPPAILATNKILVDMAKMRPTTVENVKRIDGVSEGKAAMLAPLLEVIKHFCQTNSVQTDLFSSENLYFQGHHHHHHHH
# ASSAY INFO: WRN (BV08) ADP-Glo Assay
# Format: biochemical
# CONDITION CONTEXT: 0.15 nM WRN, 5 μM ATP, 0.1 nM DNA duplex, 15 min preincubation, 60 min at 25° C., pH 7.5, 1% DMSO; read-out: ADP-Glo_hWRN_IC50

Ask: Name the reported IC50 value associated with the compound O=C(Cc1nc(C2CC2)cs1)N(Cc1ccncc1)C1C=CS(=O)(=O)C1 (centres unmarked)
Result: > 50 µM

Ask: Suppose we examine the compound COc1cc(CN(C(=O)Cc2ccc(S(F)(F)(F)(F)F)cc2)C2C=CS(=O)(=O)C2)nc(N(C)C)n1 (centres unmarked) ; what IC50 value has been reported?
Result: 0.5 to 5 µM

Ask: Look up IC50: COc1cc(CN(C(=O)C2CCc3[nH]c4cc(Cl)ccc4c3C2)[C@@H]2C=CS(=O)(=O)C2)ccn1 (some centres unmarked)
Result: 0.5 to 5 µM

Ask: Item O=C(Cc1cnn(C2CC2)c1)N(Cc1ccncc1)C1C=CS(=O)(=O)C1 (centres unmarked) has what recorded IC50?
Result: > 50 µM

Ask: Record request: IC50 value, item CN(CC(C(=O)N(Cc1ccncc1)C1C=CS(=O)(=O)C1)c1ccc(-c2ccc(F)cc2)cc1)S(C)(=O)=O (centres unmarked)
Result: > 50 µM

Ask: # lookup: IC50 of COCCOc1cc(CN(C(=O)Cc2ccc(S(F)(F)(F)(F)F)cc2)C2C=CS(=O)(=O)C2)ccn1 (centres unmarked)
Result: < 0.5 µM

Ask: Recorded IC50 for O=C(CCc1cnc2n1CCCCC2)N(Cc1ccncc1)C1C=CS(=O)(=O)C1 (centres unmarked) , please?
Result: > 50 µM

Ask: Can you share its IC50? I mean this compound: COc1cc(CN(C(=O)Cn2cnc(-c3ccc(F)cc3)c2)[C@@H]2C=CS(=O)(=O)C2)ccn1
Result: > 50 µM

* * *

What IC50 was measured for each of the following?
# TEST SYSTEM: human Werner helicase (WRN-BV08, Uniprot Q14191, amino acids 517-1235 with L1074F point mutation) (Homo sapiens, UniProt Q14191, L1074F)
# Construct: Uniprot Q14191, amino acids 517-1235 with L1074F point mutation; TEV-cleavable 8×His (C, cleaved yes); made in house; host or cells: Sf9 insect cells (baculovirus)
# ASSAY INFO: WRN (BV08) ADP-Glo Assay
# Assay type: biochemical
# CONDITION CONTEXT: 0.15 nM WRN, 5 μM ATP, 0.1 nM DNA duplex, 15 min preincubation, 60 min at 25° C., pH 7.5, 1% DMSO; read-out: ADP-Glo_hWRN_IC50
# Description: Example 2: WRN (BV08) ADP-Glo Assay Protocol Bovine skin gelatin (BSG), dimethyl sulfoxide (DMSO), Pluronic F-127 and Tris(2-carboxyethyl)phosphine hydrochloride solution (TCEP) were purchased from Sigma-Aldrich at the highest level of purity possible. […] The reaction was stopped by the addition of the ADP-Glo Kit components (Promega) as directed and the relative luminescence units (RLU) were read on an Envision 2104 (Perkin Elmer). […]

Ask: Requested field: IC50. Item: O=C(Cn1cc(-c2ccc(F)c(F)c2)cn1)N(Cc1nc(C2CC2)cs1)C1C=CS(=O)(=O)C1 (single isomer, unassigned) [I-5]
Result: < 500 nM

Ask: Name the recorded IC50 for CC(C)(O)c1csc(CN(C(=O)Cn2cc(-c3cc(F)c(F)c(F)c3)cn2)C2C=CS(=O)(=O)C2)n1 (single isomer, unassigned) [I-798] .
Result: < 500 nM

Ask: State the recorded IC50 for this entry: O=C(Cc1ccc(-n2cccc2)cc1Cl)N(Cc1ccncc1)C1C=CS(=O)(=O)C1 (stereo not shown)
Result: 500 to 5000 nM

Ask: Name the reported IC50 value associated with the compound O=C(Cc1ccc(N2CCOCC2)cc1)N(Cc1ccncc1)C1C=CS(=O)(=O)C1 (stereo not shown)
Result: > 50000 nM

* * *

# TEST SYSTEM: human Werner helicase (WRN-BV08, Uniprot Q14191, amino acids 517-1235 with L1074F point mutation) (Homo sapiens, UniProt Q14191, L1074F)
# Construct: Uniprot Q14191, amino acids 517-1235 with L1074F point mutation; TEV-cleavable 8×His (C, cleaved yes); made in house; host or cells: Sf9 insect cells (baculovirus)
# ASSAY INFO: WRN (BV08) ADP-Glo Assay
# Type: biochemical
# CONDITION CONTEXT: 0.15 nM WRN, 5 μM ATP, 0.1 nM DNA duplex, 15 min preincubation, 60 min at 25° C., pH 7.5, 1% DMSO; read-out: ADP-Glo_hWRN_IC50
pIC50: −log10 of the molar value.
Hi there, I'd appreciate the recorded pIC50 for every entry that follows.

Ask: Return reported pIC50; argument: COc1cc(CN(C(=O)C(OCCC#N)c2ccc(-c3ccc(F)c(F)c3)cc2F)[C@@H]2C=CS(=O)(=O)C2)ccn1 (stereo partly drawn) [I-744]
Result: 5.30 to 6.30

Ask: // pIC50 lookup, key: COc1cc(CN(C(=O)Cn2nc(C)c3cc(C(F)(F)F)ccc32)[C@@H]2C=CS(=O)(=O)C2)ccn1 [I-722]
Result: < 4.30

Ask: State the recorded pIC50 for this entry: O=C(Cc1ccc(-n2cccc2)cc1F)N(Cc1ccncc1)C1C=CS(=O)(=O)C1 (single isomer, unassigned) [I-520]
Result: < 4.30

Ask: Using the record for O=C(Cn1cc(-c2cc(F)c(F)c(F)c2)cn1)N(Cc1cc(C2CC2)ns1)C1C=CS(=O)(=O)C1 (stereo not drawn) [I-824] , report its pIC50.
Result: > 6.30

Ask: Tell me the measured pIC50 of COc1cc(CN(C(=O)C2Cc3cc(-n4cccc4C)ccc3O2)C2C=CS(=O)(=O)C2)ccn1 (stereo not drawn) [I-109] , please.
Result: 5.30 to 6.30

Ask: Which pIC50 is listed for COc1cc(CN(C(=O)Cc2ccc(C3CC3)cc2)C2C=CS(=O)(=O)C2)ccn1 (stereo not drawn) [I-162] ?
Result: 5.30 to 6.30

Ask: Value lookup for pIC50; key = COc1cc(CN(C(=O)C(O/C=C/S(C)(=O)=O)c2ccc(-c3ccc(F)c(F)c3)cc2F)[C@@H]2C=CS(=O)(=O)C2)ccn1 (stereo partly drawn) [I-793]
Result: 5.30 to 6.30

Ask: Which pIC50 is listed for CC(C)(O)c1cc(CN(C(=O)Cn2cc(-c3ccccc3)cn2)[C@@H]2C=CS(=O)(=O)C2)ccn1 [I-43] ?
Result: > 6.30

Ask: pIC50 for O=C(Cc1ccc(-n2cccc2)cc1)N(Cc1ccc(F)cc1F)C1C=CS(=O)(=O)C1 (stereo not drawn) [I-242] ?
Result: 5.00 to 5.30

Ask: Record request: pIC50 value, item O=C(Cn1cc(-c2ccc(F)cc2)cn1)N(Cc1ccnc(OC(F)(F)F)c1)C1C=CS(=O)(=O)C1 (stereo not drawn) [I-753]
Result: 5.30 to 6.30

Ask: pIC50 for O=C(CC1CC(c2ccccc2)C1)N(Cc1ccncc1)C1C=CS(=O)(=O)C1 (stereo not drawn) [I-584] ?
Result: < 4.30

Ask: Entry O=C(CCn1ccc2ccccc21)N(Cc1ccncc1)C1C=CS(=O)(=O)C1 (stereo not drawn) [I-502] : reported pIC50 = ?
Result: < 4.30

Ask: What value of pIC50 has been recorded for this entry: CC(C(=O)N(Cc1ccnc(C(C)(C)O)c1)C1C=CS(=O)(=O)C1)n1cc(-c2ccc(C(F)(F)F)cc2)cn1 (single isomer, unassigned) [I-774]
Result: 4.30 to 5.00

Ask: So what's the measured pIC50 for this one? Cc1cccn1-c1ccc(CC(=O)N(Cc2ccnnc2)C2C=CS(=O)(=O)C2)c(F)c1 (stereo not drawn) [I-150]
Result: 5.30 to 6.30

Ask: pIC50 for COc1cc(CN(C(=O)C(OC2CS(=O)(=O)C2)c2ccc(-c3ccc(F)c(F)c3)cc2F)[C@@H]2C=CS(=O)(=O)C2)ccn1 (single isomer, unassigned) [I-834] ?
Result: < 4.30

Ask: I have this compound here, Cc1ccc(-c2ccc(C(C(=O)N(C)C)C(=O)N(Cc3ccncc3)C3C=CS(=O)(=O)C3)cc2)cc1 (stereo not drawn) [I-277] , and I need its recorded pIC50.
Result: 5.00 to 5.30

Ask: Which pIC50 is reported for this compound? O=C(Cc1ccc(-n2cccc2)cc1)N(c1c[nH]c2ncc(F)cc12)C1C=CS(=O)(=O)C1 (stereo not drawn) [I-479]
Result: < 4.30

Ask: For O=C(Cn1cc(-c2ccccc2)cn1)N(Cc1ccncc1)C1C=CS(=O)(=O)C1 (single isomer, unassigned) [I-133] , what is its reported pIC50?
Result: 5.30 to 6.30

Ask: Could you tell me which pIC50 is on file for COc1cc(CN(C(=O)Cc2ncc(-c3ccc(F)c(F)c3)cn2)C2C=CS(=O)(=O)C2)ccn1 (stereo not drawn) [I-198] ?
Result: 5.30 to 6.30

Ask: Tell me the measured pIC50 of Cc1nn(CC(=O)N(Cc2ccncc2)C2C=CS(=O)(=O)C2)cc1-c1ccccc1 (stereo not drawn) [I-446] , please.
Result: < 4.30

Ask: Fill in: pIC50 of COc1cc(CN(C(=O)C(C(=O)N(C)C)c2ccc(-c3ccc(F)cc3)cc2)C2C=CS(=O)(=O)C2)ccn1 (stereo not drawn) [I-55] is ___
Result: > 6.30

Ask: Need pIC50 of O=C(Cn1nnc(-c2ccccc2)n1)N(Cc1ccncc1)C1C=CS(=O)(=O)C1 (stereo not drawn) [I-442] , thanks.
Result: < 4.30

Ask: Quick one: pIC50 for O=C(Cc1ccc(S(F)(F)(F)(F)F)cc1)N(Cc1cscn1)C1C=CS(=O)(=O)C1 (stereo not drawn) [I-657] ?
Result: 5.30 to 6.30

Ask: Consider the compound shown here: O=C(Cn1cc(Br)cn1)N(Cc1ccncc1)C1C=CS(=O)(=O)C1 (stereo not drawn) [I-408] What is its recorded pIC50?
Result: < 4.30

Ask: Which pIC50 is reported for this compound? CCOc1cc(CN(C(=O)Cc2ccc(-c3ccc(F)cc3)cc2F)C2C=CS(=O)(=O)C2)ccn1 (stereo not drawn) [I-84]
Result: 5.30 to 6.30

Ask: What value of pIC50 has been reported for the following compound? COC(C(=O)N(Cc1ccncc1)C1C=CS(=O)(=O)C1)c1ccc(-c2ccc(F)cc2)cc1 (single isomer, unassigned) [I-575]
Result: < 4.30

Ask: So what does the record say about pIC50 for COC(C(=O)N(Cc1ccncc1)C1C=CS(=O)(=O)C1)c1ccc(-c2ccc(F)cc2)cc1 (single isomer, unassigned) [I-72] ?
Result: > 6.30

Ask: Value lookup for pIC50; key = COc1cc(CN(C(=O)C(OCC2CCN(S(C)(=O)=O)C2)c2ccc(-c3ccc(F)c(F)c3)cc2F)[C@@H]2C=CS(=O)(=O)C2)ccn1 (stereo partly drawn) [I-808]
Result: 5.30 to 6.30

Ask: State the recorded pIC50 for this entry: O=C(Cc1c[nH]c2ccccc12)N(Cc1ccncc1)C1C=CS(=O)(=O)C1 (stereo not drawn) [I-493]
Result: < 4.30

Ask: Give the measured pIC50 of COc1cc(CN(C(=O)Cc2ccc(-c3ccc(F)cc3O)nc2)C2C=CS(=O)(=O)C2)ccn1 (stereo not drawn) [I-194] .
Result: 5.00 to 5.30

Reference source: patent US20260297070A1
